# Test system: Mus musculus
# ASSAY EXPLANATION: Inhibition of locomotor activity in mouse after intraperitoneal administration
# Type: functional
# EXPERIMENTAL CONTEXT: Mus musculus, ip; read-out: ED50
ENDPOINT LABEL: ED50 (mg/kg)
Number only, in mg/kg; omit the unit.

Record excerpt, results attached:
- COMPOUND: "O=C(CCCN1CCC(O)(c2ccc(Cl)cc2)CC1)c1ccc(F)cc1"
  UNITS: "mg/kg"
  MEASUREMENT: 0.27
- COMPOUND: "CC1=Nc2c(C)nn(C)c2C2=N[C@@H](C(C)C)CN12"
  UNITS: "mg/kg"
  MEASUREMENT: 57.3
- COMPOUND: "CCC1=Nc2c(C)nn(C)c2C2=NCC(C)N12 (configuration not stated)"
  UNITS: "mg/kg"
  MEASUREMENT: 28.3

Turning now to a further compound:
Field request: ED50 | item: CCn1nc(C)c2c1C1=NCC(c3ccccc3)N1C(C)=N2 (configuration not stated)
75.5

* * *

# Test system: Mus musculus
# ASSAY EXPLANATION: Inhibition of locomotor activity in mouse after intraperitoneal administration
# Assay type: functional
# EXPERIMENTAL CONTEXT: Mus musculus, ip; read-out: ED50
Collected ED50 values appear next to each entry.
Express it in mg/kg; write the number only.

// worked examples, ED50 included
- COMPOUND: "CCc1nc2c(C)nn(C)c2c2ncc(C)n12"
  ED50 / mg/kg: 35.5
- COMPOUND: "Cc1nn(C)c2c1N=CN1CC(C)N=C21 (centres undefined)"
  ED50 / mg/kg: 49.2
- COMPOUND: "CC1=Nc2c(C)nn(C)c2C2=NC(C)C(C)N12 (stereo in doubt; trans)"
  ED50 / mg/kg: 69.1

Let us move to another entry and its ED50.
What measured ED50 goes with CC1=Nc2c(C)nn(C)c2C2=NC(C)(C)CN12 ?
22.7

* * *

# Test system: Mus musculus
# ASSAY EXPLANATION: Inhibition of locomotor activity in mouse after intraperitoneal administration
# Format: functional
# EXPERIMENTAL CONTEXT: Mus musculus, ip; read-out: ED50
ENDPOINT LABEL: ED50 (mg/kg)
Just the number in mg/kg, nothing appended.

- COMPOUND: "CCC1=Nc2c(C)nn(C)c2C2=NC(CC)CN12 (stereo not drawn)"
  ED50 [mg/kg]: 21.7
- COMPOUND: "CCC1CN2C(C)=Nc3c(C)nn(C)c3C2=N1 (stereo not drawn)"
  ED50 [mg/kg]: 23.7
- COMPOUND: "Cc1nc2c3c(nc(C)n2c1C)c(C)nn3C"
  ED50 [mg/kg]: 39.7

Give recorded ED50 with Mus musculus for the following compound: CCC1=Nc2c(C)nn(C)c2C2=NCCN12
22.8

Now the same for Cc1nn(C)c2c1N=CN1CCN=C21
39.3

Now give it for CCc1cn2c(CC)nc3c(C)nn(C)c3c2n1 too.
20.6

Every entry's value here was drawn from ChEMBL document CHEMBL1124042.
